B1: library; numbered along this chain (parent)
chain: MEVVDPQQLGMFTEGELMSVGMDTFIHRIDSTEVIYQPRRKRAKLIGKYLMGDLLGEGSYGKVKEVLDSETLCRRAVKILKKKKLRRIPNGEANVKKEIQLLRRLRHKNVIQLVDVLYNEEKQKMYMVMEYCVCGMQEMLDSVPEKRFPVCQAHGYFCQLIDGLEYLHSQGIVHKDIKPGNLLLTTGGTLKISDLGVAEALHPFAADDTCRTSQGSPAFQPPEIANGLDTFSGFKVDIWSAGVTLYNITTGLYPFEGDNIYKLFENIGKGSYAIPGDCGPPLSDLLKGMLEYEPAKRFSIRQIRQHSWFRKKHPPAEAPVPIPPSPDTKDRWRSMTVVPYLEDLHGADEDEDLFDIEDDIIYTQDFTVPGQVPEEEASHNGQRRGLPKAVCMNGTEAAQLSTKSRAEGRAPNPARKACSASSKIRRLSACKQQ

Variants of: B1
Test method notes: STK11 functional score (HeLa growth suppression), rescaled enrichment; synonymous median = 1, nonsense median = 0 (normalised score)
Condition parameters: with HeLa; variant type: missense
Values of STK11 functional score strictly less than 1 map to 1, and values of at least 1 map to -1.

> print(dat)
    variant.name  group
 1         G385Q     -1
 2         Y118F      1
 3         C278M     -1
 4         H107W      1
 5         V368D     -1
 6          R40A     -1
 7         A377S     -1
 8         D327C     -1
 9         T328V     -1
10         L117K     -1
11         D258G     -1
12         I177P      1
13         P294I      1
14          M51S      1
15         L182Y      1
16          V95Q     -1
17           P6M      1
18          G91R     -1
19         R415C     -1
20         Q399N     -1
21         R415N     -1
22         P373I     -1
23         Q214S      1
24         K296M     -1
25         P221L      1
26          A43F     -1
27         E342R     -1
28         Q170R     -1
29          R28A     -1
30          S59F      1
31         T186R     -1
32         P319N     -1
33         Q371H     -1
34         D352H     -1
35         T363N     -1
36         S271I     -1
37         I224W     -1
38          M18V      1
39         T244N      1
40         Q364I     -1
41         G268A      1
42         D176W      1
43          T71D     -1
44          I29S     -1
